- SYSTEM: Human recombinant MMP-9 (Homo sapiens)
- Construct: made in house; host or cells: MMP-9-transfected HT1080 cells (spent media)
- Sequence (P14780 107-707 limits assumed): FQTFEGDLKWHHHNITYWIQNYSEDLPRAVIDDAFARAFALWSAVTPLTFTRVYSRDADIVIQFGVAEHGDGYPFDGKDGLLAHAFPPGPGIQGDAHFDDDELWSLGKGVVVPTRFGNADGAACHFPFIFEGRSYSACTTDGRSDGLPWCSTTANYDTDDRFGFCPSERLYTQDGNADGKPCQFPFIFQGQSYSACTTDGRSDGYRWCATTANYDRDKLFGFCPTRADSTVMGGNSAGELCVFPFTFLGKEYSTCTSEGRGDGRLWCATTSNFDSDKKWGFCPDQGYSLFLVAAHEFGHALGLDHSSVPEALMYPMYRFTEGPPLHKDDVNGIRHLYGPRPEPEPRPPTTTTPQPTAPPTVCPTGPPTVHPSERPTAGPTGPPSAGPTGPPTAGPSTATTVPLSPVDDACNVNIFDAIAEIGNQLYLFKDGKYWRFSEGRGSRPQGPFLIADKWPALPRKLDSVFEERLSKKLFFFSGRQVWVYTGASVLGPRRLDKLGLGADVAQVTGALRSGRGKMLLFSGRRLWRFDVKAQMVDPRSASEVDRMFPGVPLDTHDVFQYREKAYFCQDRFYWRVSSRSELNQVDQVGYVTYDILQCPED
- EXPERIMENT SUMMARY: In vitro MMP inhibition, Ki determination (fluorogenic substrate II)
- Type: biochemical
- CONDITION LABEL: substrate (II) 4 μM, 1 hr room temperature; apparent Ki, values in parenthesis
pKi: −log10 of the molar value. Structures can show the parent of a compound that is named as a salt.
Label criterion met when pKi is at or above 6; anything below gets criterion not met.

• O=C(NO)C1(S(=O)(=O)c2ccc(OCCCc3nc(-c4ccc(OC(F)(F)F)cc4)no3)cc2)CCN(C2CC2)CC1 [Example 51, Hydrochloride] = criterion met
• O=C(NO)C1(S(=O)(=O)c2ccc(OCCCn3nnc(-c4ccc(OC(F)(F)F)cc4)n3)cc2)CCN(CC2CC2)CC1 = criterion not met
• COCCN1CCC(C(=O)NO)(S(=O)(=O)c2ccc(OCCCc3cccc(-c4ccc(Cl)cc4)c3)cc2)CC1 = criterion met
• COCCN1CCC(C(=O)NO)(S(=O)(=O)c2ccc(OCCc3cccc(-c4ccccc4)c3)cc2)CC1 = criterion met
• COCCN1CCC(C(=O)NO)(S(=O)(=O)c2ccc(OCCCn3nnc(-c4ccc(OC(F)(F)F)cc4)n3)cc2)CC1 = criterion met
• COCCN1CCC(C(=O)NO)(S(=O)(=O)c2ccc(OCCCc3cccc(-c4ccc(F)c(F)c4)c3)cc2)CC1 = criterion met
• O=C(NO)C1(S(=O)(=O)c2ccc(OCCCn3nnc(-c4ccc(OC(F)(F)F)cc4)n3)cc2)CCN(C2CC2)CC1 = criterion not met

====

- SYSTEM: Human recombinant MMP-13 (Homo sapiens)
- Construct: made in house; host or cells: baculovirus / insect cells
- EXPERIMENT SUMMARY: In vitro MMP inhibition, IC50 determination (fluorogenic substrate I)
- Assay type: biochemical
- CONDITION LABEL: value outside parentheses (Ki in parenthesis)
Cut-off 6 nM on IC50: below means Satisfied, at or above means Not satisfied.

• COc1ccc(CCCOc2ccc(S(=O)(=O)C3(C(=O)NO)CCOCC3)cc2)cc1OC = Not satisfied
• O=C(NO)C1(S(=O)(=O)c2ccc(OCCCN3CCCc4ccccc43)cc2)CCOCC1 = Not satisfied
• O=C(CCCOc1ccc(S(=O)(=O)C2(C(=O)NO)CCOCC2)cc1)c1cccc2ccccc12 = Satisfied
• CC(C)(COc1ccc(S(=O)(=O)C2(C(=O)NO)CCOCC2)cc1)CS(=O)(=O)Cc1ccccc1 = Not satisfied
• O=C1c2cc(Cl)c(Cl)cc2C(=O)N1CCCOc1ccc(S(=O)(=O)C2(C(=O)NO)CCOCC2)cc1 = Satisfied
• CC(C)N(Cc1ccc(C(=O)CCCOc2ccc(S(=O)(=O)C3(C(=O)NO)CCOCC3)cc2)cc1)C(C)C = Not satisfied
• O=C(CCCOc1ccc(S(=O)(=O)C2(C(=O)NO)CCOCC2)cc1)c1ccc2ccccc2c1 = Satisfied
• CN(C)c1ccc(C(=O)NCCCOc2ccc(S(=O)(=O)C3(C(=O)NO)CCOCC3)cc2)cc1 = Satisfied
• O=C(NO)C1(S(=O)(=O)c2ccc(OCCCOc3ccc(F)cc3F)cc2)CCOCC1 = Satisfied
• O=C(NO)C1(S(=O)(=O)c2ccc(OCCCCO)cc2)CCOCC1 = Not satisfied
• CC(C)(CCc1ccccc1)Oc1ccc(S(=O)(=O)C2(C(=O)NO)CCOCC2)cc1 = Not satisfied
• O=C(NO)C1(S(=O)(=O)c2ccc(OCCCOCc3cc(C(F)(F)F)cc(C(F)(F)F)c3)cc2)CCOCC1 = Not satisfied
• O=C(CCCCOc1ccc(S(=O)(=O)C2(C(=O)NO)CCOCC2)cc1)c1cccc2ccccc12 = Satisfied
• COC(C)(C)CCOc1ccc(S(=O)(=O)C2(C(=O)NO)CCOCC2)cc1 = Satisfied
• COc1ccc(C(=O)NCCCCOc2ccc(S(=O)(=O)C3(C(=O)NO)CCOCC3)cc2)cc1 = Satisfied
• COc1cc2c(cc1OC)C(C)N(C(=O)OCCCCOc1ccc(S(=O)(=O)C3(C(=O)NO)CCOCC3)cc1)CC2 (stereo not shown) = Not satisfied
